meta.source: patent US20200361895A1

Assay remarks: PK protocol, intravenous administration
Assay type: in vivo, male Sprague Dawley rats
Applied conditions: male, Sprague Dawley, plasma, dose 1 mg/kg, rat
Protocol: Pharmacokinetic parameters were determined in male Sprague Dawley rats (Charles River, UK, 250-350 g; or Vital River Laboratory Animal Technology Co Ltd, Beijing, China, 7-9 weeks old). Animals were individually housed during the study and maintained under a 12 h light/dark cycle. Animals had free access to food and water. For intravenous administration, compounds were formulated as a solution in water or DMSO:PBS [10:90] in 2 mL/kg dosing volume and administered via tail vein. […]
Structures can show the parent of a compound that is named as a salt.
Measured endpoint: log10(half-life) (log10 of the value in h)
The figures below represent log10 of half-life, where half-life is stated in h.

Input line: // lookup log10(half-life) for CC(C)c1cc(F)cc(C2CCOCC2)c1NC(=O)NS(=O)(=O)c1cc(C(=O)N(C)C)n(C)n1 [Example 30, sodium salt]
Output line: 0.36

Input line: Same question for `CC#Cc1cc(-c2cc(F)cc(C(C)C)c2NC(=O)NS(=O)(=O)c2ccn(C(C)C)n2)ccn1` please.
Output line: 0.57

Input line: Thanks! And CC(C)n1cc(S(=O)(=O)NC(=O)Nc2c(-c3ccnc(C#N)c3)ccc3c2CCC3)nn1 [Example 230, sodium salt] ?
Output line: 0.11

Input line: Also CC(C)c1cc(F)cc(-c2cccnc2)c1NC(=O)NS(=O)(=O)c1cc(C(=O)N(C)C)n(C)n1 [Example 33, sodium salt] , if possible.
Output line: 0.80

Input line: // query: `Cc1cc(-c2cc(F)cc(C(C)C)c2NC(=O)NS(=O)(=O)c2cc(CN(C)C)n(C)n2)n(C)n1`
Output line: -0.30

Input line: Input COc1cc(-c2ccc3c(c2NC(=O)NS(=O)(=O)c2ccc(CN(C)C)cc2)CCC3)ccn1 [Example 251, sodium salt]
Output line: 0.46

Input line: Now the molecule `CC(C)c1cc(F)cc(-c2cccnc2)c1NC(=O)NS(=O)(=O)c1ccn(C(C)C)n1`
Output line: 0.52
